# Experiment summary: self-splicing fitness, log relative to wild type (ln ratio); higher = more splicing; Tetrahymena group I intron in knt gene, E. coli kanamycin selection, DiMSum; sequences stand for … in CUCUCU…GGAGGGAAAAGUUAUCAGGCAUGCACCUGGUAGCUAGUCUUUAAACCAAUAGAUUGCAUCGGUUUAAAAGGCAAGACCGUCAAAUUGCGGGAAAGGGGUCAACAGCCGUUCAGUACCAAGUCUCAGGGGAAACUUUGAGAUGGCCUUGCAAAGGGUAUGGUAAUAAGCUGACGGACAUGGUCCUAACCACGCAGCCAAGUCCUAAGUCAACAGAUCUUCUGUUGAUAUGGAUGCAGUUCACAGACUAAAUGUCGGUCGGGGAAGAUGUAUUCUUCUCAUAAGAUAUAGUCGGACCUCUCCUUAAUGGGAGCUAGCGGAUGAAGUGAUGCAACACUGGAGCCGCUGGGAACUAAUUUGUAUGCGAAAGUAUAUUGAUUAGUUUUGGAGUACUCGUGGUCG;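 further: selection with 25 µg/mL kanamycin versus none on LB agar overnight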
# Details: 30 °C
Binary classification by self-splicing fitness (ln), with -1 as an inclusive lower bound for criterion met; all other cases are criterion not met.

Sequence text	Class label
UCUUAGCAAUAUUACGCAAG	criterion not met
AGAAAGCAAUAUUACGACAA	criterion met
GAUCAGCAAUAUUACGCUAA	criterion not met
AUGUAGCAAUAUUACGCUUC	criterion not met
UUCCAGCAAUAUUACGCCCA	criterion not met
CUGCAGCAAUAUUACGGAAU	criterion not met
CAACAGCAAUAUUACGGGAG	criterion not met
UCUGAGCAAUAUUACGGAUG	criterion not met
AAACAGCAAUAUUACGUCCA	criterion not met
AUCAAGCAAUAUUACGGCUU	criterion not met
UAAAAGCAAUAUUACGAUGG	criterion met
UGUCAGCAAUAUUACGCCAA	criterion met
AUGCAGCAAUAUUACGGCGA	criterion met
UAUGAGCAAUAUUACGUAGA	criterion not met
ACUCAGCAAUAUUACGGCGA	criterion not met
AAUAAGCAAUAUUACGUGCG	criterion not met
